Origin of measurements: patent US20260258115A1

Assignment: determine reported Neut IC50 (ug/ml) subtype A for the given binders.
- target_or_system: RSV F on recombinant mKate-RSV A2 virus (Respiratory syncytial virus A2, UniProt P03420 26-574)
- test_summary: cell-based or functional assay
Answers are plain numbers, in µg/mL.

ADI-21083 (antibody, V domains shown) VH: QVQLQESGPGLVKPSGTLSLTCAVSGDSITTSNWWSWVRQPPGKGLEWIGEIYHSGVTRYNPSLKSRLSISLDKSRNQFSLKLSSVTAADTAVYYCARDEALFGHWFDPWGQGTLVTVSS VL: QSVLTQPRSVSGSPGQSVTISCTGSSSDIGSYNYVSWYQQHPGKAPKLMLYDVSKRPSGVPDRFSGSKSVKTASLTISGLQAEDEADYYCCTYAGNSVVFGGGTKLTVL    0.36

List the reported Neut IC50 (ug/ml) subtype A of each binder below.
1. ADI-21068 (antibody, V domains shown) VH: QVQLQESGPGLVKPSGTLSLTCVVSGGSIKSHNYWTWVRQPPGKGLEWVGEIYQSGRTNYNPSLNSRVTLSMDKSKNQLSLRLTSVTAADTAVYFCVGGGPFAPYYFQTWGQGTLVTVSS VL: QSVLTQPPSVSGAPGQRVTISCTGSSSNIGAGYDVHWYQQLPGTAPKLLIYNNNNRPSGVPDRFSGSKSGTSASLAITGLQAEDEADYYCQSYDTSLSGYVFGTGTKVTVL
2. ADI-21076 (antibody, V domains shown) VH: EVQLVESGGGLVRPGGSLRLSCAASGFTFSSYAMDWVRQAPGKGLEWVSSISASSSFISYTDSVKGRFTISRDNAKNSLFLQMDNVTAEDTAVYYCARDYYESGRYFYGNPFDIWGQGTMVTVSS VL: QPVLTQPPSVSGAPGQRVTISCTGSGSNIGAGFDVHWYQQLPGTAPKLLIYANSDRPSGVPDRFSASKSGTSASLAITGLQAEDEAHYYCQSYDNSLGGLCVFGTGTKLTVL
3. ADI-21085 (antibody, V domains shown, also called Ab 330) VH: EVQLVETGGGLVKPGGSLRLSCEASGFNFRSYSMNWVRQAPGKGLEWVSSISASSSYINYADSVKGRFTISRDNSKNSLYLQMNSLRAEDTGVYYCARVLVHYYYGMDVWGQGTTVTVSS VL: QSVLTQPPSVSAAPGQRVTISCTGTSSNIGAGYDVHWYQQLPGRAPKLLILGNNNRPSGVPDRFSGSKSGTSASLAITGLQAEDEADYYCQTYDKTLMEIFGGGTKLTVL
4. ADI-21077 (antibody, V domains shown) VH: QVQLVESGGGLVKPGGSLRLSCVVSGFTFRDYYMSWIRQAPGKGLEWISYISPSSTYTNYADSVRGRFTISRDNAENSLYLQMNSLRAEDTAVYYCARVNIAATGAGGVFLDYWGQGTTVTVSS VL: QPVLTQPPSVSGAPGQRVTISCAGSSSNIGAGYDVHWYQQLPGTAPKLLIYGNINRPSGVPDRFSGSKSGTSASLAITGLQAEDEADYYCQSYDSSLSGSYVFGTGTKVTVL

Reply:
0.1
0.03
0.1
0.06
